- test: soluble on expression in E. coli; label from the status in PepcDB or PDB records

sequenceChain	soluble on expression in E. coli
MKEHHIPKNSIITVAGTVGVGKSTLTKTLAKRLGFKTSLEEVDHNPYLEKFYHDFERWSFHLQIYFLAERFKEQKTIFEAGGGFVQDRSIYEDTGIFAKMHADKGTMSKVDYKTYTSLFEAMVMTPYFPHPDVLIYLEGDLENILNRIEQRGREMELQTSRSYWEEMHTRYENWISGFNACPVLKLRIEDYDLLNDENSIENIVDQIASVIHDNQKKLEHHHHHH	not soluble
MSLASKPSLLFVDDSKVMRLAADKMLGREFRVEVAENGLQAWTMVCHNPSISVVFSDLAMPEMDGFALLKKIRTSEDEGVAGLPVIIVTGAENDDEARAEALRLGGTDFISKPFNSTDLLARARAHANYQNERKEFAKQAMIDPLTRLGNRRYLLHRLRQELALAARQQYRLSVVQLEICQFNQLFVQLGKKRTDMVLLKLAQSLRGVIRKEDSLARSSVAQFTVLLPSAGPNGAKRFVERALKVSERLAFQFRGKVQRLPLTVIIHTPAVHAGLAPRQVQLALEEQLKQARKLGPGTVLSDDADTTLSVDESAPILTIEQALVLLRAGKPRAVVSALPDLERQLAPLLELMKRSASDQEGHHHHHH	not soluble
TSKFQWTSDFNIGFNRNRVTELYGGKPELKGLKRLEEGRDMDEWYLREWAGVDPANGSPLWYTTDENGKRTTTDSYNKADRVYCGSAAPKFTGGWMNSFSYKGFTLTANFDFVYGNLLYNQSRELLDSDGAYADYNSMKLKSGWKRWEKEGDIATHPKAINGGNKNSNKSSSRYLEKGNYFSLRNLSLGYSIPEKLCGKLGLQRVNVSCSADNLFTLTPFSGVSPQLSDSSTDGYAGTIYPLSRRIVFGLNVSF	not soluble

* * *

- test: soluble on expression in E. coli; label from the status in PepcDB or PDB records
measuredProperty: soluble on expression in E. coli

Example cases with answers are listed next.
sequenceChain	soluble on expression in E. coli
MSLSKVRYGVVSTAKVAPRFIEGVRLAGNGEVVAVSSRTLESAQAFANKYHLPKAYDKLEDMLADESIDVIYVATINQDHYKVAKAALLAGKHVLVEKPFTLTYDQANELFALAESCNLFLMEAQKSVFIPMTQVIKKLLASGEIGEVISISSTTAYPNIDHVTWFRELELGGGTVHFMAPYALSYLQYLFDATITHASGTATFPKGQSDSQSKLLLQLSNGVLVDIFLTTRLNLPHEMIIYGTEGRLIIPHFWKTTHAKLVRNDTSARTIQVDMVSDFEKEAYHVSQMILEGQRVSHIMTPQLTLSGVKIIEDLYRSWGKEGHHHHHH	soluble
MRLATKDLAEAIRKGQVRKSSFNTEQLRAIEKGESKIPDYTWHHHQDTGRMQLIREGLHHDTGHIGWEAMNKGR	not soluble
MGSDKIHHHHHHMSYYLRSASLTNYVEVARAVGLDPHQFLRAAKISRDVLLDPDIRIPAKKVGRLLDDSARAAHVDDFGLRMAELRQVSNLGPLAFVVREQPTLRRALESMVRYMGVQNEALAMRMEESEGLLMIRLHILNDQPGTLRQATDLAVGVVYRLLSVCLGASWRPRSICFTHAAPASQATFQRVFGMPCVFNQDFDGIVCVAADLEAPLPSYDPVMAHQVKRYLGTLLAQANTTLPDKVRELVHVLLPSGMCSVDRVAQHLGVDRRTVHRRLAQENTSYSDIVNAARASLVVRYIDNRERPLSEVATLLGFSSLSAFSRWFGGQFGCSVSKWRLQHEGQGRNTA	not soluble
MFSYHELITIESVARLGSFSQAADELHKVPSAISYTIKSVEDRLTVVLFTRLHRRVELTAAGTYFVDQARKLLKDMEEIRFNTQRVANGWQQSVSVALDNVVRENSVNQLVRDFYATFPDIELQLTMEVFNGVWDALMTGRADIGIGATATIPIGGDFSYRPMGELAWDFIVSINHPLASFEHDIPNEELVKYPAICLEDTSQILPKRSTWLLDNQRRLIVPNWHSAEQCFIDGLGVGVIPNHRAKRLLETGQVISKKIEHHIAPSPCCLAWNNNNQSVAIQWLLDYLGDSDKLNSEWLKEF	not soluble

Kindly consider the entry below.
Data request: Requested field: soluble on expression in E. coli. Item: GLDTLDRDGDGSTADADCNDFAPTIHPGAAEATLDGVDSNCDGRDSGVAEVVETFKNPGTYSSPVINFKIASPPGPGTPIYGPPRDFSGYNKSYSLAIGKTSYYDPTTGTKWNDDTITPVSDGQDIWRGWTHTGKWSFFNGKAGDKITLSVQRDAQEASLKGAHPGFILFWRPEGGPLFWAGTQDLDEGQTALPADSDTVIGHVIVQHADWTLQGLPPKADHTAPAGVDTELYPMKPDSYTMYYVDSGYDADKYVASKKLIMHPTAFKGLALNDGTAGAFTKSITLPKTGYYMLYVANVLEVDDWSVDADGKLTTTGEVWEVPAKGCWVNITISKP
Data returned: soluble

* * *

- test: soluble on expression in E. coli; label from the status in PepcDB or PDB records

sequenceChain	soluble on expression in E. coli
MGSDKIHHHHHHMKKKFQLEVPGGADKVLLHTCCAPCSSAIIECLMQHGVTPVIYYCNPNIYPLEEYIIRKDECTRYAQSLGLEIIDADYDHDAWRCRMAGMEQEPERGGRCLRCFKMRLQETARYAHEHGFPVITTTLASSRWKSLEQIEEAGRYATAPYPDVTYWEQNWRKGGLSERRIAIIKEYNFYNQQYCGCEFSMRKEEKGG	not soluble
MNIVPILLIRFYQSFISPLLGPSCKYHPTCSNYAIEAFRQHNFFYASWLTVWRVLRCNPFSKGGYDPVPPKSVKSAGNSKDSKLEHHHHHH	not soluble
MGSDKIHHHHHHVTITNPLPIDRNGEMVEISMAEITGKLQLPDTAQVIVLDENGLEVPYQITYDDMLIFPASVKGDASAVYTIAEGTPQPVDVVACGRQYPERLDDVAWENDRAAYRAYGPALQEKGERAFGYDIWTKSVSEPVVEDRYDGDLNRGISYHVDHGNGMDCYAVGPTLGGGTAALFPDSTIVYPYCYKDCEILDNGPLRFTAKLVYNPLVVKGDSSVIETRIISLDKGSQLNKTVVSFDNLQEITPVVTGIVLHKQNPMGYSFDADAGYIAYADSTENAANNNGVIYIGAVFPATVKGAFAQVFSEKERKERGDALGHVLAVNDYEPGAEYIYYWGSGWSKYGFEADTDWNKYLEEYARKIRNPLAVAIK	not soluble

* * *

- test: soluble on expression in E. coli; label from the status in PepcDB or PDB records
measuredProperty: soluble on expression in E. coli

Look over these answered cases.
sequenceChain	soluble on expression in E. coli
MSTLAQLLDTKRTALAAELAGFIDRSVSQSSGISGVALKGAVAAAKKVRPDIVTKGAERLLPEVVEVLDPYWASFEASDSTHFGEFLEQHKSEVSDKILEVADRNAEKVDMPALKKAYGSLRGKAASFIEPNLPGLGQIMQNYMK	not soluble
SAGSVADSDAVVKLDDGHLNNSLSSPVQADVYFPRLIVPFCGHIKGGMRPGKKVLVMGIVDLNPESFAISLTCGDSEDPPADVAIELKAVFTDRQLLRNSCISGERGEEQSAIPYFPFIPDQPFRVEILCEHPRFRVFVDGHQLFDFYHRIQTLSAIDTIKINGDLQITKLG	soluble
GFRWASNATFTLNRNKVKRLAGGSTNPVTGELIDMPNMPVGWLGKENVAPRVILTEGGTMTDIYVYNELTKDNNGNIKVDAQTGGLSMHTAETPTKVGNLNANYNLGWTNNFTYKGINLGVVLSARVGGLAYSATQGVLDYYGVSSITANARDNKGVPMNNGKVDTQKYYQTIGTGEGGYGRYYLYSATNVRLQELSLSYTLPKKWLNNVANVTFGLVGRNLWMIYCKAPFDPELSASTSSNYYMNVDYFMQPSMRNIGFNVKVQF	not soluble
GMEFNHLTKQLNQLLAQDYVAFSITENPVVQMLSQASFAQIAYVMQQYSIFPKELVGFTELARRKALGAGWNGVAQELQENIDEEMGSTTGGISHYTLLADGLEEGLGVAVKNTMPSVATSKLLRTVLSLFDRQVDYVLGATYAIEATSIPELTLIVKLVEWLHEGAIPKDLQYFFSKHLDEWEIEHEAGLRTSVAAYIQPEEFGEFAAGFRAMIDAMQVWWQELAQEAISSEVVLSTAIAQHH	soluble
MCLARSISRRENYKPLKSKVMTKRNVGRPPKNERADHCCMVRFTDTEFARFLTLFEQSGLQNRAAFIKARVFNETFRVIKVDRSLLDYYQKLTTLYGQFRSVGVNYNQTVVALKSNFTEKKAFAMLTKLEKLTLELAIIGGEIVQLTRKFQEKWQHRQ	not soluble
MSLGQKGHKDSLYPCGGTPESSLHEALDQCMTALDLFLTNQFSEALSYLKPRTKESMYHSLTYATILEMQAMMTFDPQDILLAGNMMKEAQMLCQRHRRKSSVTDSFSSLVNRPTLGQFTEEEIHAEVCYAECLLQRAALTFLQDENMVSFIKGGIKVRNSYQTYKELDSLVQSEGHHHHHH	not soluble

Shift focus to the following entry.
Data request: Could you share which soluble on expression in E. coli value was measured for QIDYMTNSDMGYDYRNKLIIDVFGLDPQIVSTMRTEIAKIPGITGIGLTRGTPLNGGNNNSSEYRGRPLSMQIFSIDSVALSLFDLKMKPNGRKADKPDRTLYLSRSAYNDFDVANLPDGVIHWGKAGEFYYCGDAPEVHFGGFKEPHPSYLFIPYPQSSAWSWSVLVGYSEGADPEQLIQSIQAVYSRITGQPYTEILRSEDIIASHSEEERSLS ?
Data returned: not soluble

Data provenance is the DeepSol protein solubility set.
